The measured values listed here are drawn from the supplement of paper PMC12764529.

Experiment: folding stability dG unfold (combined trypsin and chymotrypsin); higher = more stable
Param threshold (0.9 kcal/mol) applies to folding stability dG unfold; output Condition met when value >= threshold, Condition not met when value < threshold.

Qu. Determine whether this sequence has folding stability dG unfold no lower than 0.9 kcal/mol: SAGGMKLTPEELKGKTIRIRIKVNGKEYEIEAKVVEVDGELYIEVKIINKETKEEKTITIPLDDVEIVSAGG [r13_289_TrROS_Hall]
Ans. Condition met

Qu. Determine whether this sequence has folding stability dG unfold no lower than 0.9 kcal/mol: SQWVIKIKFPNPDGEPVKIIFPVEEIQEIFKEEHGEPSSPQEFADRLAKHHPNVDVEIMPLDDMPPEQLNSA [r9_1085_TrROS]
Ans. Condition not met

Qu. Determine whether this sequence has folding stability dG unfold no lower than 0.9 kcal/mol: SAGGSAGGSAGMTVEEFTIPEVGGRVIRTTVEEPTEDGVVVRRRYLILVNPDGTVERRPESAGGSAGGSAGG [r11_911_JUSTAS]
Ans. Condition not met

Qu. Determine whether this sequence has folding stability dG unfold no lower than 0.9 kcal/mol: SAGGSAGGSAGGEIKVRIDEYDPPSGFFRIEPPDGRTRQIPVPPGMNPEDLKGDTVTLKPSAGGSAGGSAGG [r7_296_TrROS]
Ans. Condition not met

Qu. Determine whether this sequence has folding stability dG unfold no lower than 0.9 kcal/mol: SAGVPVDLHHDPKGVELATSTSYTPSGEPVGSSSSTHTVPGTGTPVSVYSPVYDDGAGLITRTYLAKLSAGG [r19_185_JUSTAS]
Ans. Condition not met

Qu. Determine whether this sequence has folding stability dG unfold no lower than 0.9 kcal/mol: SMIKIKLKNGMEITIEKTPEKVKIKLKATGKEIELPLEELENMTEEELLEKLRKLAEELGMEVEEVEIEPSA [r9_1211_TrROS_Hall]
Ans. Condition met

Qu. Determine whether this sequence has folding stability dG unfold no lower than 0.9 kcal/mol: SAGGSAGGSAGGMLTAVFTTPGNVRRLVPFSSEEEARALAEAEGVEVEFLDPAEAARLLSAGGSAGGSAGGS [r10_66_JUSTAS]
Ans. Condition not met

Qu. Determine whether this sequence has folding stability dG unfold no lower than 0.9 kcal/mol: SAAPVRVEVEYDPERGVLRVRLYIPATSPEEARELVERFFAALGAEARITENPETGTFVVEVDIRLPPASAG [r14_424_TrMRF]
Ans. Condition met

Qu. Determine whether this sequence has folding stability dG unfold no lower than 0.9 kcal/mol: SAGGSSMPLEVTEVKKIGDKIVITLRVPPSVGPLSLGLTIELKSKPVTITSTFDPSTTTATIEVGLSAGGSA [r2_261_JUSTAS]
Ans. Condition met

Qu. Determine whether this sequence has folding stability dG unfold no lower than 0.9 kcal/mol: SAGGSAGGSATIWIPVSQIEEFLKQMPPDRIKEVKITYDPEDGWIPVKIPGGREIMIWVPKSAGGSAGGSAG [r3_291_TrROS]
Ans. Condition met

Qu. Determine whether this sequence has folding stability dG unfold no lower than 0.9 kcal/mol: SAGGSAGGSAGGLPINARPPNIAEVIRALRESGRYRVVEIRPFGDGAVIRVEKDGVPLESAGGSAGGSAGGS [r10_695_TrMRF]
Ans. Condition not met

Qu. Determine whether this sequence has folding stability dG unfold no lower than 0.9 kcal/mol: SSKTVTVTTEEEEKEAREKIKELVKPGKSVDVEITMTGPDGTRTRRTYKITTNPDGTITIEETETPLPPPSA [r9_1023_JUSTAS]
Ans. Condition met

Qu. Determine whether this sequence has folding stability dG unfold no lower than 0.9 kcal/mol: SAGGKVYRLPDGTRVLEVEVDGELYRLVVRRPDGEELVLEFESREEALEAAKALAEAGWEIVAVERVPSAGG [r13_727_TrROS_Hall]
Ans. Condition not met

Qu. Determine whether this sequence has folding stability dG unfold no lower than 0.9 kcal/mol: SAGGSAGGSAMEINEIVKETAKKGKNLTITVKLPDGSTVTITVTPDEDVPEDLEVLEVTVKSAGGSAGGSAG [r3_421_JUSTAS]
Ans. Condition met

Qu. Determine whether this sequence has folding stability dG unfold no lower than 0.9 kcal/mol: SAGGSAGGSAEKPPPPVVTLRVRVVVEVDGKLYVATAEVRLVDGKLEIRVRIEEVPPGAPVSAGGSAGGSAG [r3_49_TrROS_Hall]
Ans. Condition met

Qu. Determine whether this sequence has folding stability dG unfold no lower than 0.9 kcal/mol: SAAKITEVDVEVGGDTITTTFRLEIDGKPYLAVTRLEPLTDPDGNPRFIAVTELYDEDGNLVATLPSDLSAG [r14_465_TrMRF]
Ans. Condition met

Qu. Determine whether this sequence has folding stability dG unfold no lower than 0.9 kcal/mol: SMVKTIEIEIVLPPGEWVKLTEEDIKEKIEKELPGWKILSIDITKEERLVPGGTEPLVVIKAKILVEKKESA [r9_1189_JUSTAS]
Ans. Condition met

Qu. Determine whether this sequence has folding stability dG unfold no lower than 0.9 kcal/mol: SAGMITVPLPDGSVLELTVEKETVTTEVDPSTGKKRLVTETLMTNTGDLAVNGKVSPTTATLTTVVLESAGG [r19_246_JUSTAS]
Ans. Condition not met

Qu. Determine whether this sequence has folding stability dG unfold no lower than 0.9 kcal/mol: SAGGSAGGSKKKLKLVIKLKKGEKAPTAEELKKKLEELGFEIKDIKVVEKDGELYVVLEIELKSAGGSAGGS [r12_1052_TrROS_Hall]
Ans. Condition met

Qu. Determine whether this sequence has folding stability dG unfold no lower than 0.9 kcal/mol: SAGMPKPVVTPVTLPVNGALITFTVDPEVPLATFTFDEPDVNAVAEEYAKERAAELEKAGIPTKIVPSSAGG [r19_354_JUSTAS]
Ans. Condition not met

Qu. Determine whether this sequence has folding stability dG unfold no lower than 0.9 kcal/mol: SAKMVVLKAYFKGDGDEIKEIADAIDFPYTIEKIPDYPDYYIATFVFPTEEKAPEWEKALKEKGYIVEGSAG [r14_745_TrMRF]
Ans. Condition met

Qu. Determine whether this sequence has folding stability dG unfold no lower than 0.9 kcal/mol: SAGGSAGGMVTFTVEYESDPALLEKLKEELPGVEILEVKREGPKKTITITIKVPSEEKAKKFLSSAGGSAGG [r6_334_JUSTAS]
Ans. Condition met

Qu. Determine whether this sequence has folding stability dG unfold no lower than 0.9 kcal/mol: SAGGSAGGSAGGSGPPLRTEERVEEVTLPNGERLLVETTTLTDPVTGETTVSRSIRLPLSAGGSAGGSAGGS [r4_445_JUSTAS]
Ans. Condition not met

Qu. Determine whether this sequence has folding stability dG unfold no lower than 0.9 kcal/mol: SAGGPYYEWEIKLPDNKTISITMRRNPENGRPQHTVTIHDPEKGKPVKEHPFDSPEEAEELIEEGLLSAGGS [r8_450_TrROS]
Ans. Condition not met

Qu. Determine whether this sequence has folding stability dG unfold no lower than 0.9 kcal/mol: SAGGDATIVLTDFPEDDPEARIRTARNLYRELKAAGPPLRINILTDTPLGREVADYLESEGIEVGLGSAGGS [r16_450_TrMRF]
Ans. Condition not met

Qu. Determine whether this sequence has folding stability dG unfold no lower than 0.9 kcal/mol: SAGGSAGGSAGGYLEAPIVIKIEFQIYDPDDGDPIATYEHTIMIPIEIELPPPPDPDNDSAGGSAGGSAGGS [r10_50_TrROS]
Ans. Condition met

---

Assay: folding stability dG unfold from trypsin proteolysis; higher = more stable
Param threshold (2 kcal/mol) applies to folding stability dG unfold; output 1 (yes) when value >= threshold, 0 (no) when value < threshold.

Qu. Determine whether this sequence has folding stability dG unfold no lower than 2 kcal/mol: SAMPVVTLKAKVTIHSDPNGIEEKEIEITVTFPDPNVGLEEAKKKAEEAIKEYAEKNGLKIELEEITIESAG [r14_190_JUSTAS]
Ans. 0 (no)

Qu. Determine whether this sequence has folding stability dG unfold no lower than 2 kcal/mol: SAGGSAGGSAGGKKYIIKNKKTNKYIEVDVIEKDGKLYVYDKKTGKVHEVSLKDLEIVPSAGGSAGGSAGGS [r10_28_TrROS_Hall]
Ans. 0 (no)

Qu. Determine whether this sequence has folding stability dG unfold no lower than 2 kcal/mol: EEWYIIQIKIEYWGPNGKEREIDIMVLIPPEQMTPDQLKQVKEIAREIAENLQENGYNIEINVEIIPLDDMS [r1_221_TrROS]
Ans. 1 (yes)

Qu. Determine whether this sequence has folding stability dG unfold no lower than 2 kcal/mol: SAGGSAGGSAGGSMLVEKKTFKDPKTGKTYIEIVIKDENGNLLSVKILSTEDPEKIEKLLSAGGSAGGSAGG [r7_484_JUSTAS]
Ans. 1 (yes)

Qu. Determine whether this sequence has folding stability dG unfold no lower than 2 kcal/mol: SAGGPMYIVIKVEVWNPDNGKKREINIVIPIPPGMTPEQMLEKAKELARTIAEENGYEVRIDEIHIFSAGGS [r8_312_TrROS]
Ans. 1 (yes)

Qu. Determine whether this sequence has folding stability dG unfold no lower than 2 kcal/mol: SAGGSAGGSADIKVEVEYDKSNGYMWVKIKLPGKDIPIWIPPNDSPEQMEEKAIDFAKYLLKSAGGSAGGSA [r18_266_TrROS]
Ans. 0 (no)

Qu. Determine whether this sequence has folding stability dG unfold no lower than 2 kcal/mol: SAGGSAGGSAGGSVIEVKDPNGKKYIIIKTPDPNVYPVTVIPPDGTTTVTPVSDYSKLLSSAGGSAGGSAGG [r7_769_JUSTAS]
Ans. 0 (no)
